Reference source: the supplement of paper PMC9112550

Tested on: Escherichia coli TOP10
protocol-notes: shrunken log2 fold change of peptide-encoding DNA abundance (4.5 h post-induction vs induction); higher = less antimicrobial activity (less host growth inhibition)
condition-set: time post-induction: 4.5 h; library: site-saturation at positions 5, 18, 19, 20
Criterion: shrunken log2 fold change meeting or surpassing -0.09. Met: Y. Not met: N.

INSERT INTO assay_data (seq, label) VALUES
  ('RRIRSRPPRLPRPRPRPEHHPRP', 'N'),
  ('RRIRYRPPRLPRPRPRPYDDPRP', 'N'),
  ('RRIRHRPPRLPRPRPRPTRQPRP', 'Y'),
  ('RRIRKRPPRLPRPRPRPCMIPRP', 'Y'),
  ('RRIRSRPPRLPRPRPRPKQPPRP', 'Y'),
  ('RRIRDRPPRLPRPRPRPEEAPRP', 'Y'),
  ('RRIRARPPRLPRPRPRPTYMPRP', 'N'),
  ('RRIRERPPRLPRPRPRPLCVPRP', 'N'),
  ('RRIRWRPPRLPRPRPRPLQLPRP', 'Y'),
  ('RRIRVRPPRLPRPRPRPTIYPRP', 'N'),
  ('RRIRFRPPRLPRPRPRPPYEPRP', 'N'),
  ('RRIRGRPPRLPRPRPRPGKYPRP', 'N'),
  ('RRIRSRPPRLPRPRPRPESCPRP', 'Y'),
  ('RRIRNRPPRLPRPRPRPWITPRP', 'Y'),
  ('RRIRARPPRLPRPRPRPMNDPRP', 'Y'),
  ('RRIRDRPPRLPRPRPRPVHWPRP', 'Y'),
  ('RRIRNRPPRLPRPRPRPENGPRP', 'Y'),
  ('RRIRWRPPRLPRPRPRPATAPRP', 'Y'),
  ('RRIRRRPPRLPRPRPRPPRTPRP', 'Y'),
  ('RRIRERPPRLPRPRPRPWVYPRP', 'N'),
  ('RRIRCRPPRLPRPRPRPTHGPRP', 'Y'),
  ('RRIRDRPPRLPRPRPRPQGLPRP', 'Y'),
  ('RRIRGRPPRLPRPRPRPSNNPRP', 'Y'),
  ('RRIRQRPPRLPRPRPRPAAKPRP', 'Y'),
  ('RRIRQRPPRLPRPRPRPLNYPRP', 'N'),
  ('RRIRPRPPRLPRPRPRPNMKPRP', 'N'),
  ('RRIRHRPPRLPRPRPRPSRYPRP', 'N'),
  ('RRIRYRPPRLPRPRPRPLHFPRP', 'Y'),
  ('RRIRGRPPRLPRPRPRPHLCPRP', 'Y'),
  ('RRIRNRPPRLPRPRPRPAVAPRP', 'Y'),
  ('RRIRSRPPRLPRPRPRPFACPRP', 'N'),
  ('RRIRPRPPRLPRPRPRPTHQPRP', 'Y'),
  ('RRIRARPPRLPRPRPRPDPPPRP', 'Y'),
  ('RRIRLRPPRLPRPRPRPYCVPRP', 'N'),
  ('RRIRHRPPRLPRPRPRPLVFPRP', 'N'),
  ('RRIRRRPPRLPRPRPRPAFQPRP', 'Y'),
  ('RRIRARPPRLPRPRPRPCKPPRP', 'N'),
  ('RRIRWRPPRLPRPRPRPDPFPRP', 'Y'),
  ('RRIRIRPPRLPRPRPRPLSAPRP', 'N'),
  ('RRIRIRPPRLPRPRPRPMPYPRP', 'Y'),
  ('RRIRYRPPRLPRPRPRPYALPRP', 'N'),
  ('RRIRNRPPRLPRPRPRPDITPRP', 'Y'),
  ('RRIRFRPPRLPRPRPRPDCHPRP', 'Y'),
  ('RRIRSRPPRLPRPRPRPKFFPRP', 'Y');

###

Tested on: Escherichia coli TOP10
protocol-notes: shrunken log2 fold change of peptide-encoding DNA abundance (4.5 h post-induction vs induction); higher = less antimicrobial activity (less host growth inhibition)
condition-set: time post-induction: 4.5 h; library: site-saturation at positions 5, 18, 19, 20
We'd kindly ask you to apply these shrunken log2 fold change classes: bin A (below -0.2), bin B (-0.2 to below -0.009), bin C (-0.009 or more)

INSERT INTO results (seq, label) VALUES
  ('RRIRLRPPRLPRPRPRPVTRPRP', 'bin C'),
  ('RRIRMRPPRLPRPRPRPFVYPRP', 'bin C'),
  ('RRIRFRPPRLPRPRPRPSVLPRP', 'bin A'),
  ('RRIRRRPPRLPRPRPRPSWCPRP', 'bin B'),
  ('RRIRTRPPRLPRPRPRPSAIPRP', 'bin A'),
  ('RRIRIRPPRLPRPRPRPDHHPRP', 'bin A'),
  ('RRIRVRPPRLPRPRPRPQLQPRP', 'bin B'),
  ('RRIRSRPPRLPRPRPRPKLMPRP', 'bin B'),
  ('RRIRDRPPRLPRPRPRPIDDPRP', 'bin C'),
  ('RRIRGRPPRLPRPRPRPVVYPRP', 'bin C'),
  ('RRIRERPPRLPRPRPRPGGTPRP', 'bin A'),
  ('RRIRQRPPRLPRPRPRPNYKPRP', 'bin A'),
  ('RRIRVRPPRLPRPRPRPIENPRP', 'bin A'),
  ('RRIRFRPPRLPRPRPRPVDYPRP', 'bin B'),
  ('RRIRYRPPRLPRPRPRPEMHPRP', 'bin C'),
  ('RRIRCRPPRLPRPRPRPPCVPRP', 'bin C'),
  ('RRIRSRPPRLPRPRPRPWDIPRP', 'bin A'),
  ('RRIRCRPPRLPRPRPRPNSGPRP', 'bin A'),
  ('RRIRFRPPRLPRPRPRPCQRPRP', 'bin B'),
  ('RRIRKRPPRLPRPRPRPTAKPRP', 'bin C'),
  ('RRIRSRPPRLPRPRPRPPWSPRP', 'bin C'),
  ('RRIRWRPPRLPRPRPRPFIDPRP', 'bin B'),
  ('RRIRHRPPRLPRPRPRPAIGPRP', 'bin B');

###

Tested on: Escherichia coli TOP10
protocol-notes: shrunken log2 fold change of peptide-encoding DNA abundance (4.5 h post-induction vs induction); higher = less antimicrobial activity (less host growth inhibition)
condition-set: time post-induction: 4.5 h; library: site-saturation at positions 5, 18, 19, 20
Catalogue of shrunken log2 fold change values
measurement-type: shrunken log2 fold change

INSERT INTO assay_data (seq, measurement_type, experimental_value) VALUES
  ('RRIRCRPPRLPRPRPRPRKPPRP', 'shrunken log2 fold change', 0.218),
  ('RRIRCRPPRLPRPRPRPAMQPRP', 'shrunken log2 fold change', 0.0643),
  ('RRIRCRPPRLPRPRPRPFQAPRP', 'shrunken log2 fold change', 0.0554),
  ('RRIRARPPRLPRPRPRPLSNPRP', 'shrunken log2 fold change', 0.25),
  ('RRIRPRPPRLPRPRPRPDLRPRP', 'shrunken log2 fold change', -0.124),
  ('RRIRDRPPRLPRPRPRPRFEPRP', 'shrunken log2 fold change', 0.0618),
  ('RRIRLRPPRLPRPRPRPYECPRP', 'shrunken log2 fold change', -0.352),
  ('RRIRPRPPRLPRPRPRPKNHPRP', 'shrunken log2 fold change', -0.282),
  ('RRIRGRPPRLPRPRPRPWKHPRP', 'shrunken log2 fold change', -0.161),
  ('RRIRRRPPRLPRPRPRPMGVPRP', 'shrunken log2 fold change', 0.324),
  ('RRIRTRPPRLPRPRPRPGIDPRP', 'shrunken log2 fold change', -0.0352),
  ('RRIRWRPPRLPRPRPRPKMFPRP', 'shrunken log2 fold change', -0.0838),
  ('RRIRWRPPRLPRPRPRPLVGPRP', 'shrunken log2 fold change', 0.282),
  ('RRIRYRPPRLPRPRPRPFMMPRP', 'shrunken log2 fold change', -0.108),
  ('RRIRGRPPRLPRPRPRPKTDPRP', 'shrunken log2 fold change', 0.797);

###

Let's look at some sequences and their measured shrunken log2 fold change.
Tested on: Escherichia coli TOP10;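 further: peptides expressed intracellularly from a pBAD plasmid library in pooled LB shake-flask culture, induced with 0.3% L-arabinose, DNA abundance read by NGS, three biological replicates, DESeq2 with apeglm shrinkage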
protocol-notes: shrunken log2 fold change of peptide-encoding DNA abundance (4.5 h post-induction vs induction); higher = less antimicrobial activity (less host growth inhibition)
condition-set: time post-induction: 4.5 h; library: site-saturation at positions 5, 18, 19, 20
measurement-type: shrunken log2 fold change

INSERT INTO assay_data (seq, target_system, experimental_value) VALUES
  ('RRIRDRPPRLPRPRPRPNMFPRP', 'Escherichia coli TOP10', -0.0684),
  ('RRIRERPPRLPRPRPRPQFQPRP', 'Escherichia coli TOP10', -0.0426),
  ('RRIRDRPPRLPRPRPRPMRPPRP', 'Escherichia coli TOP10', 0.804),
  ('RRIRMRPPRLPRPRPRPNITPRP', 'Escherichia coli TOP10', 0.314),
  ('RRIRTRPPRLPRPRPRPWAPPRP', 'Escherichia coli TOP10', 0.154),
  ('RRIRFRPPRLPRPRPRPRFQPRP', 'Escherichia coli TOP10', 0.0731),
  ('RRIRDRPPRLPRPRPRPRSRPRP', 'Escherichia coli TOP10', 0.00639),
  ('RRIRMRPPRLPRPRPRPRFCPRP', 'Escherichia coli TOP10', 1.63),
  ('RRIRSRPPRLPRPRPRPPADPRP', 'Escherichia coli TOP10', 0.981),
  ('RRIRNRPPRLPRPRPRPDCGPRP', 'Escherichia coli TOP10', 0.0246),
  ('RRIRRRPPRLPRPRPRPFHMPRP', 'Escherichia coli TOP10', -0.0949),
  ('RRIRLRPPRLPRPRPRPYQRPRP', 'Escherichia coli TOP10', -0.393),
  ('RRIRWRPPRLPRPRPRPYDSPRP', 'Escherichia coli TOP10', -0.377),
  ('RRIRWRPPRLPRPRPRPMKMPRP', 'Escherichia coli TOP10', -0.0851),
  ('RRIRDRPPRLPRPRPRPPRAPRP', 'Escherichia coli TOP10', 1.1),
  ('RRIRERPPRLPRPRPRPTAAPRP', 'Escherichia coli TOP10', 0.456),
  ('RRIRPRPPRLPRPRPRPPALPRP', 'Escherichia coli TOP10', 0.388),
  ('RRIRCRPPRLPRPRPRPHAYPRP', 'Escherichia coli TOP10', -0.759),
  ('RRIRVRPPRLPRPRPRPCRAPRP', 'Escherichia coli TOP10', 0.0373),
  ('RRIRQRPPRLPRPRPRPWGLPRP', 'Escherichia coli TOP10', 0.211),
  ('RRIRCRPPRLPRPRPRPNFAPRP', 'Escherichia coli TOP10', -0.098),
  ('RRIRLRPPRLPRPRPRPIKCPRP', 'Escherichia coli TOP10', -0.152),
  ('RRIRARPPRLPRPRPRPNYPPRP', 'Escherichia coli TOP10', -0.144),
  ('RRIRRRPPRLPRPRPRPITNPRP', 'Escherichia coli TOP10', -0.19),
  ('RRIRTRPPRLPRPRPRPVHHPRP', 'Escherichia coli TOP10', -0.321),
  ('RRIRHRPPRLPRPRPRPIFWPRP', 'Escherichia coli TOP10', -0.0136),
  ('RRIRFRPPRLPRPRPRPHEAPRP', 'Escherichia coli TOP10', -0.377),
  ('RRIRYRPPRLPRPRPRPQDVPRP', 'Escherichia coli TOP10', -0.103),
  ('RRIRERPPRLPRPRPRPYLNPRP', 'Escherichia coli TOP10', -0.326),
  ('RRIRDRPPRLPRPRPRPPNCPRP', 'Escherichia coli TOP10', -0.0514),
  ('RRIRTRPPRLPRPRPRPWPIPRP', 'Escherichia coli TOP10', 0.00716),
  ('RRIRYRPPRLPRPRPRPHYMPRP', 'Escherichia coli TOP10', -1.45),
  ('RRIRSRPPRLPRPRPRPQKWPRP', 'Escherichia coli TOP10', -0.0746),
  ('RRIRERPPRLPRPRPRPTCVPRP', 'Escherichia coli TOP10', -0.0193),
  ('RRIRERPPRLPRPRPRPHCSPRP', 'Escherichia coli TOP10', -0.279),
  ('RRIRPRPPRLPRPRPRPAVWPRP', 'Escherichia coli TOP10', 0.602),
  ('RRIRGRPPRLPRPRPRPHVRPRP', 'Escherichia coli TOP10', 0.427),
  ('RRIRPRPPRLPRPRPRPGTQPRP', 'Escherichia coli TOP10', 0.185),
  ('RRIRPRPPRLPRPRPRPMRPPRP', 'Escherichia coli TOP10', 1.04),
  ('RRIRDRPPRLPRPRPRPEFVPRP', 'Escherichia coli TOP10', 0.204),
  ('RRIRHRPPRLPRPRPRPSNFPRP', 'Escherichia coli TOP10', -0.108),
  ('RRIRGRPPRLPRPRPRPRLRPRP', 'Escherichia coli TOP10', 0.87),
  ('RRIRRRPPRLPRPRPRPPCSPRP', 'Escherichia coli TOP10', 0.112),
  ('RRIRRRPPRLPRPRPRPKVCPRP', 'Escherichia coli TOP10', 0.0559),
  ('RRIRFRPPRLPRPRPRPLKEPRP', 'Escherichia coli TOP10', -0.273),
  ('RRIRWRPPRLPRPRPRPWAYPRP', 'Escherichia coli TOP10', -0.502),
  ('RRIRSRPPRLPRPRPRPSQNPRP', 'Escherichia coli TOP10', -0.321),
  ('RRIRNRPPRLPRPRPRPCPSPRP', 'Escherichia coli TOP10', -0.0371),
  ('RRIRLRPPRLPRPRPRPHKLPRP', 'Escherichia coli TOP10', -0.1),
  ('RRIRWRPPRLPRPRPRPREDPRP', 'Escherichia coli TOP10', 0.532),
  ('RRIRLRPPRLPRPRPRPTYPPRP', 'Escherichia coli TOP10', 0.0515),
  ('RRIRMRPPRLPRPRPRPVQQPRP', 'Escherichia coli TOP10', 0.113);
